Task for the reader: assign each of the following compounds its reported inhibition at 10 µM.
- assay_system: panel of 203 kinases (Homo sapiens, UniProt P08631)
- Construct: purchased DiscoverX (KINOMEscan)
- Sequence (P08631 whole entry): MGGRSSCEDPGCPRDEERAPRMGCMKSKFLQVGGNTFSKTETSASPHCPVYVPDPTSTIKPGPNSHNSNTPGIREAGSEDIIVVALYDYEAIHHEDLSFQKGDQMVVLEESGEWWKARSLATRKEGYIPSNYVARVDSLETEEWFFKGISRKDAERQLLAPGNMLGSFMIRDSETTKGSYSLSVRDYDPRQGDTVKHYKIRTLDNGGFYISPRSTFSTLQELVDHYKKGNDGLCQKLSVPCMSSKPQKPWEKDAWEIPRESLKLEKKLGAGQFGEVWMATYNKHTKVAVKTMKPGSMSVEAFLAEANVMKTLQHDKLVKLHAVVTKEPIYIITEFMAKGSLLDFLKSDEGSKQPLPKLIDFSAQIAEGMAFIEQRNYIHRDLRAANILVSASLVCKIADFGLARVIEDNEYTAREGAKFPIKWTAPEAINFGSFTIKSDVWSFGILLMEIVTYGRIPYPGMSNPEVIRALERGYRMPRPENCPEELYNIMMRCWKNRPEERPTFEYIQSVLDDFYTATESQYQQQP
- experiment_summary: KINOMEscan competitive binding, whole panel
- applied_conditions: 10 µM, n=1; kinase HCK; read-out: Percent inhibition HCK
Number only, in %; omit the unit.

I'd like to know its inhibition at 10 µM. The compound in question is Cc1ccc(O)cc1Nc1ccnc(Nc2cccc(C(N)=O)c2)n1 [Compound 3]
99.8

Another compound to look at: Cc1ccc(O)cc1N(C)c1ccnc(Nc2cccc(S(N)(=O)=O)c2)n1 [Compound 4]
99.8

And CN1CCN(c2ccc(Nc3nccc(-c4cnn5ncccc45)n3)cc2C#N)CC1 [Compound 1] ?
0

Same for COc1ccc(Nc2nccc(-c3cnn4ncccc34)n2)cc1 [Compound 2]
0

Also, Fc1cccc(COc2ccc(Nc3ncnc4c3CN(CCN3CCOCC3)CC4)cc2Cl)c1 [Compound 6] please.
0

Same question, Clc1ccc(Nc2ncc(-c3ccccc3)s2)cc1 [Compound 10] this time
0

Record: COc1cc(Nc2nccc(-c3sc(N)nc3-c3cccc(NC(=O)c4c(F)cccc4F)c3)n2)cc(OC)c1OC [Compound 7]
99.7

Same for C[C@@H](Oc1cc(-c2cnc3ccccn23)sc1C(N)=O)c1ccccc1Cl [Compound 8]
0

Now consider Nc1ncc2c(-c3ccncc3)c[nH]c2n1 [Compound 11] and answer again.
66.9

Then this compound: c1ccc(COc2cccc(-c3ccnc4[nH]ccc34)c2)cc1 [Compound 9]
0
